assay: retest of yeast aging ROS inhibitors – cherry picked compounds, confirmation (AID 434994);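 further: cells aged with compound for 7 days at 30 degrees C before staining; 100% equals mean DHE fluorescence of all compound wells on the plate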; conditions: S. cerevisiae aging, superoxide DHE fluorescence; at 10 µM; stronger effect = lower value
The other results are listed elsewhere or left out. The source made the active and inactive calls.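 How the source made its calls: active means superoxide signal below 65% of the plate average of sample wells; inactive means the rest.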
The following compounds are shown together with reported superoxide response (% of plate) values.

Read off the recorded superoxide response (% of plate) for CSc1ncc(Cl)c(C(=O)Nc2cc(C)ccc2C)n1
95.3% (inactive)

Continuing:
Read off the recorded superoxide response (% of plate) for Cc1ccc(-c2nnc(Nc3ccc(C(=O)N(C)C)cc3)c3ccccc23)cc1S(N)(=O)=O
107% (inactive)

Read off the recorded superoxide response (% of plate) for Cn1c(Nc2ccccc2)cc(=O)n(C)c1=O
100% (inactive)

Read off the recorded superoxide response (% of plate) for CC(C)NC(=O)/C(C#N)=C\c1ccc(N(C)C)c(Br)c1
88.1% (inactive)

Read off the recorded superoxide response (% of plate) for O=C(CSc1ccc(-c2ccc(-n3cccn3)cc2)nn1)Nc1ccc([N+](=O)[O-])cc1
95.7% (inactive)

Read off the recorded superoxide response (% of plate) for CN1CCN(c2cc3c(cc2F)c(=O)c(C(=O)O)cn3CCF)CC1
116% (inactive)

Read off the recorded superoxide response (% of plate) for CC1CCCN(S(=O)(=O)c2ccc(C(=O)Nc3nnc(-c4ccncc4)o3)cc2)C1 (centres undefined)
111% (inactive)

Read off the recorded superoxide response (% of plate) for COc1cc(NC(=O)CSc2ccc(-c3cccnc3)nn2)cc(OC)c1
123% (inactive)

Read off the recorded superoxide response (% of plate) for COc1cccc(NC(=O)NCCN2CCCCC2)c1
101% (inactive)

Read off the recorded superoxide response (% of plate) for Cc1cc(=O)n2[nH]c(-c3cccc(Cl)c3)cc2n1
98.1% (inactive)
